Assay Target: human GLP-1R (Homo sapiens, UniProt P43220)
Sequence (P43220 24-463): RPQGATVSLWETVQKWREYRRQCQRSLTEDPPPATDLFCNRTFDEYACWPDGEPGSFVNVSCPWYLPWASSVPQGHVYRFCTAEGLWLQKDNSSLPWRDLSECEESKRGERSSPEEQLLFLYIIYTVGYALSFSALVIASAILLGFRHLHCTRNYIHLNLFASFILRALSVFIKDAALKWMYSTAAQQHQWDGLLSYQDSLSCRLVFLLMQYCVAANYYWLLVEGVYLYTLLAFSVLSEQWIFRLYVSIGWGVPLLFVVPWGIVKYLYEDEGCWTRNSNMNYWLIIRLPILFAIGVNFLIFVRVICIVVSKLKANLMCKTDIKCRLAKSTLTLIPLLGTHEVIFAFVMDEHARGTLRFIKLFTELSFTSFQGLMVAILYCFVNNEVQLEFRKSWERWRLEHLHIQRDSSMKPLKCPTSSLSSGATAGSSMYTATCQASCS
Assay Summary: cAMP FRET agonism at GLP-1R in H188-GLP-1R transduced HEK293 cells
Format: cell-based
Condition: FRET ratio tracking cAMP, Fig. 1A
pEC50: −log10 of the molar value. Square brackets hold non-standard residues; d marks the D form. Ends that are not written are not given here.
Readout Type: pEC50

substance="F[dS]QGTFTSDLSKYLEEEAVREFIAWLKNGGPSRHYLNLVTRQRY-NH2 [GEP12]" observed=7.76

----------
Assay Target: human GLP-1R (Homo sapiens, UniProt P43220)
Assay Summary: Agonist-activated internalization of GLP-1R
Format: cell-based
Condition: dose–response 30 pM–1 µM, duplicate
Square brackets hold non-standard residues; d marks the D form. Ends that are not written are not given here.
Readout Type: EC50 (nM)

substance="H[dS]QGTFTSDLSKYLEEEAVREFIAWLKNGGPSRHYLNLVTRQRY-NH2 [GEP44]" unit_annotation=nM observed=3.97
